This collection of values is drawn from PubChem BioAssay AID2060493.

Provide the reported IC50 of each item.
# Tested on: 616215-338-R-J1-PDC tumor spheroids, viability;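 further: spheroids exposed to agents for 7 days before readout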
# experiment.summary: Anticancer human tumor 616215-338-R-J1-PDC patient-derived colon adenocarcinoma cell line growth inhibition [GQUAD]
# condition.notes: curve of first compound; second compound 10 µM; spheroids with HUVEC and MSC

Worked cases, IC50 given:
compound	IC50
COc1cc(C2c3cc4c(cc3C(OC3OC5COC(C)OC5C(O)C3O)C3COC(=O)C23)OCO4)cc(OC)c1O (stereo not given) + Cc1[nH]c2ccc(F)cc2c1-c1nc2c3cccnc3c3ncccc3c2[nH]1	720 nM
C=CC(=O)N1CCN(c2nc(=O)n(-c3c(C)ccnc3C(C)C)c3nc(-c4c(O)cccc4F)c(F)cc23)C(C)C1 (stereo not given) + Cc1cnc(CNC(=O)c2c(=O)c3ccc(N4CCCN(C)CC4)nc3n3c2sc2ccccc23)cn1	< 31.6 nM
Cc1[nH]c2ccccc2c1CCNCc1ccc(/C=C/C(=O)NO)cc1 + CN(C)c1ccc(Nc2c3ccc(NC(=O)CCN4CCCC4)cc3nc3cc(NC(=O)CCN4CCCC4)ccc23)cc1	66.1 nM
CC1COCCN1c1cc(C2(O)CC3CCC(C2)O3)c2cnn(-c3ccn[nH]3)c2n1 (stereo not given) + Cc1[nH]c2ccc(F)cc2c1-c1nc2c3cccnc3c3ncccc3c2[nH]1	120 nM

Provide reported IC50 for each item, in the same order as listed.
1. CC(C)(O)C1CCC(Nc2ccc3ncc(-c4cccc(C(F)(F)F)c4)n3n2)CC1 (stereo not given) + CN(C)c1ccc(Nc2c3ccc(NC(=O)CCN4CCCC4)cc3nc3cc(NC(=O)CCN4CCCC4)ccc23)cc1
2. CC(C)(O)C1CCC(Nc2ccc3ncc(-c4cccc(C(F)(F)F)c4)n3n2)CC1 (stereo not given) + Cc1cnc(CNC(=O)c2c(=O)c3ccc(N4CCCN(C)CC4)nc3n3c2sc2ccccc23)cn1
3. CCCS(=O)(=O)Nc1ccc(F)c(C(=O)c2c[nH]c3ncc(-c4ccc(Cl)cc4)cc23)c1F + Cc1[nH]c2ccc(F)cc2c1-c1nc2c3cccnc3c3ncccc3c2[nH]1
4. COc1ncnc(C2CC2)c1-c1ncc2cnn(Cc3ccc(-c4nc(C(F)(F)F)cn4C(C)C)cc3)c2n1 + Cc1[nH]c2ccc(F)cc2c1-c1nc2c3cccnc3c3ncccc3c2[nH]1

Solution:
1: 447 nM; 2: < 31.6 nM; 3: 4760 nM; 4: > 10000 nM

Provide reported IC50 for each item, in the same order as listed.
1. CC(=O)O[C@H]1C(=O)[C@@]2(C)[C@H]([C@H](OC(=O)c3ccccc3)[C@]3(O)C[C@H](OC(=O)[C@H](O)[C@@H](NC(=O)c4ccccc4)c4ccccc4)C(C)=C1C3(C)C)[C@]1(OC(C)=O)CO[C@@H]1C[C@@H]2O + CN(C)c1ccc(Nc2c3ccc(NC(=O)CCN4CCCC4)cc3nc3cc(NC(=O)CCN4CCCC4)ccc23)cc1
2. Nc1ccn(C2OC(CO)C(O)C2(F)F)c(=O)n1 (stereo not given) + CN(C)c1ccc(Nc2c3ccc(NC(=O)CCN4CCCC4)cc3nc3cc(NC(=O)CCN4CCCC4)ccc23)cc1
3. O=C(NO)c1cnc(N2CCN(S(=O)(=O)c3ccc4ccccc4c3)CC2)nc1 + CN(C)c1ccc(Nc2c3ccc(NC(=O)CCN4CCCC4)cc3nc3cc(NC(=O)CCN4CCCC4)ccc23)cc1

Solution:
["< 31.6 nM", "< 31.6 nM", "220 nM"]

Provide reported IC50 for each item, in the same order as listed.
1. Cn1ncnc1[C@H]1c2n[nH]c(=O)c3cc(F)cc(c23)N[C@@H]1c1ccc(F)cc1 + Cc1[nH]c2ccc(F)cc2c1-c1nc2c3cccnc3c3ncccc3c2[nH]1
2. Cc1[nH]c2ccccc2c1CCNCc1ccc(/C=C/C(=O)NO)cc1 + Cc1cnc(CNC(=O)c2c(=O)c3ccc(N4CCCN(C)CC4)nc3n3c2sc2ccccc23)cn1
3. O=C(c1cc(Cc2n[nH]c(=O)c3ccccc23)ccc1F)N1CCN(C(=O)C2CC2)CC1 + Cc1[nH]c2ccc(F)cc2c1-c1nc2c3cccnc3c3ncccc3c2[nH]1
4. Cc1cccc(N(C)C(=O)C2C(O)CCN2c2nc(C)cc(C(F)(F)F)c2C#N)c1 (stereo not given) + Cc1cnc(CNC(=O)c2c(=O)c3ccc(N4CCCN(C)CC4)nc3n3c2sc2ccccc23)cn1

Solution:
> 316 nM
< 0.999 nM
> 10000 nM
< 31.6 nM

Provide reported IC50 for each item, in the same order as listed.
1. C=CC(=O)N1CCN(c2nc(=O)n(-c3c(C)ccnc3C(C)C)c3nc(-c4c(O)cccc4F)c(F)cc23)C(C)C1 (stereo not given) + CN(C)c1ccc(Nc2c3ccc(NC(=O)CCN4CCCC4)cc3nc3cc(NC(=O)CCN4CCCC4)ccc23)cc1
2. Cn1ncnc1[C@H]1c2n[nH]c(=O)c3cc(F)cc(c23)N[C@@H]1c1ccc(F)cc1 + Cc1cnc(CNC(=O)c2c(=O)c3ccc(N4CCCN(C)CC4)nc3n3c2sc2ccccc23)cn1
3. COc1ncnc(C2CC2)c1-c1ncc2cnn(Cc3ccc(-c4nc(C(F)(F)F)cn4C(C)C)cc3)c2n1 + Cc1cnc(CNC(=O)c2c(=O)c3ccc(N4CCCN(C)CC4)nc3n3c2sc2ccccc23)cn1

Solution:
> 10000 nM
< 0.999 nM
< 31.6 nM

Provide reported IC50 for each item, in the same order as listed.
1. CC1COCCN1c1cc(C2(O)CC3CCC(C2)O3)c2cnn(-c3ccn[nH]3)c2n1 (stereo not given) + CN(C)c1ccc(Nc2c3ccc(NC(=O)CCN4CCCC4)cc3nc3cc(NC(=O)CCN4CCCC4)ccc23)cc1
2. CC[C@@]1(O)C(=O)OCc2c1cc1n(c2=O)Cc2cc3c(CN(C)C)c(O)ccc3nc2-1 + Cc1cnc(CNC(=O)c2c(=O)c3ccc(N4CCCN(C)CC4)nc3n3c2sc2ccccc23)cn1

Solution:
1: 139 nM; 2: < 0.999 nM
